Cited source for all entries: ChEMBL document CHEMBL1136991

Would you mind telling me the reported IC50 of each entry?
target: Serine/threonine-protein kinase B-raf (Homo sapiens, UniProt P15056, V600E); test: Inhibition of BRAF V600E mutant-mediated ERK phosphorylation in human WM266.4 cells; format: cell-based
Sequence (P15056 2-766 V600E limits assumed): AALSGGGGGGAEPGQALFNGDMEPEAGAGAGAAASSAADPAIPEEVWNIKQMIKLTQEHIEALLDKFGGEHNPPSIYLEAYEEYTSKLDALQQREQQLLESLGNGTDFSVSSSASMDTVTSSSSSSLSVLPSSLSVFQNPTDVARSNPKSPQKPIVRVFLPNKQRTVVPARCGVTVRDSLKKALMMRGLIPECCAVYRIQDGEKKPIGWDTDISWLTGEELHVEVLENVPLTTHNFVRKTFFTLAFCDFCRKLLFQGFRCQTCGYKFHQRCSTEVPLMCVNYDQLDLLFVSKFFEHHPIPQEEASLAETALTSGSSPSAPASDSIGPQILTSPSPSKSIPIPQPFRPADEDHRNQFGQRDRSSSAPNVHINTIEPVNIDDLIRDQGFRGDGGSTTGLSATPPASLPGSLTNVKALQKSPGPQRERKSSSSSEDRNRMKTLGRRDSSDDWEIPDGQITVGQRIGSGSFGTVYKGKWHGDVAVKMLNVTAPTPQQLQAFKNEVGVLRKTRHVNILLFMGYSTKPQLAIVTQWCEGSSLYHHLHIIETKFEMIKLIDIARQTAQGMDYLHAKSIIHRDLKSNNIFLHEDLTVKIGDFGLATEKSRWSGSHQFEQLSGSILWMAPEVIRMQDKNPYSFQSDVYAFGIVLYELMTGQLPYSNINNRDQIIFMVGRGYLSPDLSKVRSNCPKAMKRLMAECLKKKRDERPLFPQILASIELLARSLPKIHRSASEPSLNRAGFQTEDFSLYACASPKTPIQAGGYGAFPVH

Inquiry: Could you tell me which IC50 is on file for O=C(Nc1ccc(F)c(F)c1)Nc1ccc(Oc2ccnc3[nH]c(=O)[nH]c23)c2ccccc12 ?
Reply text: > 100 µM

Inquiry: Field entry: Cn1c(=O)[nH]c2nccc(Oc3ccc(NC(=O)Nc4cc(C(F)(F)F)ccc4F)c4ccccc34)c21
Reply text: 0.81 µM

Inquiry: Note, next up: O=C(Nc1cccc(SC(F)(F)F)c1)Nc1ccc(Oc2ccnc3[nH]c(=O)[nH]c23)cc1F
Reply text: 4.15 µM

Inquiry: Next record, please: O=C(Cc1cccc(C(F)(F)F)c1)Nc1ccc(Oc2ccnc3[nH]c(=O)[nH]c23)c2ccccc12
Reply text: > 100 µM

Inquiry: Then this compound: COc1cc(NC(=O)Nc2ccc(Cl)c(C(F)(F)F)c2)ccc1Oc1ccnc2[nH]c(=O)[nH]c12
Reply text: 5.5 µM
